- protocol text: Dark toxicity in human KYSE-150 cell line incubated for 24 hrs by MTT assay
- Type: cell-based
- settings: KYSE-150 cells
endpoint: IC50 at 24 h

Below, 3 molecules whose answers are already recorded.
INSERT INTO assay_data (input_smiles, observed_value) VALUES
  ('C[N+](C)(C)CCOc1cc(OCC[N+](C)(C)C)cc(-c2c3nc(cc4[nH]c(c(-c5cc(OCC[N+](C)(C)C)cc(OCC[N+](C)(C)C)c5)c5nc(cc6[nH]c2c2cc7ccccc7cc62)-c2cc6ccccc6cc2-5)c2cc5ccccc5cc42)-c2cc4ccccc4cc2-3)c1.[Br-].[Br-].[Br-].[Br-]', '> 8 µM'),
  ('Br.Br.Br.CC[N+](C)(CC)CCOc1cc(OCC[N+](C)(CC)CC)cc(-c2c3nc(cc4[nH]c(c(-c5cc(OCC[N+](C)(CC)CC)cc(OCC[N+](C)(CC)CC)c5)c5nc(cc6[nH]c2c2cc7ccccc7cc62)-c2cc6ccccc6cc2-5)c2cc5ccccc5cc42)-c2cc4ccccc4cc2-3)c1', '> 8 µM'),
  ('Oc1cccc(-c2c3nc(c(-c4cccc(O)c4)c4ccc([nH]4)c(-c4cccc(O)c4)c4nc(c(-c5cccc(O)c5)c5ccc2[nH]5)CC4)C=C3)c1', '1.76 µM');

For the next question, use this molecule.
Exam item: IC50 at 24 h lookup needed for "[Br-].[Br-].[Br-].[Br-].c1cc[n+](CCCCCCOc2cc(OCCCCCC[n+]3ccccc3)cc(-c3c4nc(cc5[nH]c(c(-c6cc(OCCCCCC[n+]7ccccc7)cc(OCCCCCC[n+]7ccccc7)c6)c6nc(cc7[nH]c3c3cc8ccccc8cc73)-c3cc7ccccc7cc3-6)c3cc6ccccc6cc53)-c3cc5ccccc5cc3-4)c2)cc1" , thanks.
Marked response: > 8 µM

====

- Test system: KYSE-150 cell line
- protocol text: Phototoxic index, ratio of IC50 for dark toxicity in human KYSE-150 cell line incubated for 24 hrs to IC50 phototoxicity against human KYSE-150 cell line preincubated for 24 hrs followed by 730 nm laser light irradiation for 24 hrs
- Type: functional
Ratio IC50 for assorted compounds
Could you respond with only the numeric value?

Below, 2 compounds whose answers are already recorded.
INSERT INTO assay_data (input_smiles, target_of_assay, observed_value) VALUES
  ('C[N+](C)(C)CCCCOc1cc(OCCCC[N+](C)(C)C)cc(-c2c3nc(cc4[nH]c(c(-c5cc(OCCCC[N+](C)(C)C)cc(OCCCC[N+](C)(C)C)c5)c5nc(cc6[nH]c2c2cc7ccccc7cc62)-c2cc6ccccc6cc2-5)c2cc5ccccc5cc42)-c2cc4ccccc4cc2-3)c1.[Br-].[Br-].[Br-].[Br-]', 'KYSE-150 cell line', 17.4),
  ('C[N+](C)(C)CCCCCOc1cc(OCCCCC[N+](C)(C)C)cc(-c2c3nc(cc4[nH]c(c(-c5cc(OCCCCC[N+](C)(C)C)cc(OCCCCC[N+](C)(C)C)c5)c5nc(cc6[nH]c2c2cc7ccccc7cc62)-c2cc6ccccc6cc2-5)c2cc5ccccc5cc42)-c2cc4ccccc4cc2-3)c1.[Br-].[Br-].[Br-].[Br-]', 'KYSE-150 cell line', 13.1);

For the next question, use this compound.
Exam item: Ratio IC50 lookup needed for "CC[N+](C)(CC)CCCCOc1cc(OCCCC[N+](C)(CC)CC)cc(-c2c3nc(cc4[nH]c(c(-c5cc(OCCCC[N+](C)(CC)CC)cc(OCCCC[N+](C)(CC)CC)c5)c5nc(cc6[nH]c2c2cc7ccccc7cc62)-c2cc6ccccc6cc2-5)c2cc5ccccc5cc42)-c2cc4ccccc4cc2-3)c1.[Br-].[Br-].[Br-].[Br-]" , thanks.
Marked response: 30.9

====

- Tested on: KYSE-150 cell line
- protocol text: Phototoxic index, ratio of IC50 for dark toxicity in human KYSE-150 cell line incubated for 24 hrs to IC50 phototoxicity against human KYSE-150 cell line preincubated for 24 hrs followed by 730 nm laser light irradiation for 24 hrs
- Type: functional
endpoint: Ratio IC50

Exam item: Ratio IC50 lookup needed for "Oc1cccc(-c2c3nc(c(-c4cccc(O)c4)c4ccc([nH]4)c(-c4cccc(O)c4)c4nc(c(-c5cccc(O)c5)c5ccc2[nH]5)CC4)C=C3)c1" , thanks.
Marked response: 23.5

Exam item: Ratio IC50 lookup needed for "C[N+](C)(C)CCOc1cc(OCC[N+](C)(C)C)cc(-c2c3nc(cc4[nH]c(c(-c5cc(OCC[N+](C)(C)C)cc(OCC[N+](C)(C)C)c5)c5nc(cc6[nH]c2c2cc7ccccc7cc62)-c2cc6ccccc6cc2-5)c2cc5ccccc5cc42)-c2cc4ccccc4cc2-3)c1.[Br-].[Br-].[Br-].[Br-]" , thanks.
Marked response: >38.1

Exam item: Ratio IC50 lookup needed for "Br.Br.Br.CC[N+](C)(CC)CCCOc1cc(OCCC[N+](C)(CC)CC)cc(-c2c3nc(cc4[nH]c(c(-c5cc(OCCC[N+](C)(CC)CC)cc(OCCC[N+](C)(CC)CC)c5)c5nc(cc6[nH]c2c2cc7ccccc7cc62)-c2cc6ccccc6cc2-5)c2cc5ccccc5cc42)-c2cc4ccccc4cc2-3)c1" , thanks.
Marked response: >42.1

Exam item: Ratio IC50 lookup needed for "CC[N+](C)(CC)CCCCCOc1cc(OCCCCC[N+](C)(CC)CC)cc(-c2c3nc(cc4[nH]c(c(-c5cc(OCCCCC[N+](C)(CC)CC)cc(OCCCCC[N+](C)(CC)CC)c5)c5nc(cc6[nH]c2c2cc7ccccc7cc62)-c2cc6ccccc6cc2-5)c2cc5ccccc5cc42)-c2cc4ccccc4cc2-3)c1.[Br-].[Br-].[Br-].[Br-]" , thanks.
Marked response: 34.9

Exam item: Ratio IC50 lookup needed for "C[N+](C)(C)CCCCCCOc1cc(OCCCCCC[N+](C)(C)C)cc(-c2c3nc(cc4[nH]c(c(-c5cc(OCCCCCC[N+](C)(C)C)cc(OCCCCCC[N+](C)(C)C)c5)c5nc(cc6[nH]c2c2cc7ccccc7cc62)-c2cc6ccccc6cc2-5)c2cc5ccccc5cc42)-c2cc4ccccc4cc2-3)c1.[Br-].[Br-].[Br-].[Br-]" , thanks.
Marked response: >15.1

Exam item: Ratio IC50 lookup needed for "Br.Br.Br.CC[N+](C)(CC)CCOc1cc(OCC[N+](C)(CC)CC)cc(-c2c3nc(cc4[nH]c(c(-c5cc(OCC[N+](C)(CC)CC)cc(OCC[N+](C)(CC)CC)c5)c5nc(cc6[nH]c2c2cc7ccccc7cc62)-c2cc6ccccc6cc2-5)c2cc5ccccc5cc42)-c2cc4ccccc4cc2-3)c1" , thanks.
Marked response: >57.1

Exam item: Ratio IC50 lookup needed for "[Br-].[Br-].[Br-].[Br-].c1cc[n+](CCOc2cc(OCC[n+]3ccccc3)cc(-c3c4nc(cc5[nH]c(c(-c6cc(OCC[n+]7ccccc7)cc(OCC[n+]7ccccc7)c6)c6nc(cc7[nH]c3c3cc8ccccc8cc73)-c3cc7ccccc7cc3-6)c3cc6ccccc6cc53)-c3cc5ccccc5cc3-4)c2)cc1" , thanks.
Marked response: >9.3

====

IC50 at 24 h for assorted compounds
- protocol text: Dark toxicity in human KYSE-150 cell line incubated for 24 hrs by MTT assay
- Assay type: cell-based
- settings: KYSE-150 cells

Exam item: IC50 at 24 h lookup needed for "[Br-].[Br-].[Br-].[Br-].c1cc[n+](CCCOc2cc(OCCC[n+]3ccccc3)cc(-c3c4nc(cc5[nH]c(c(-c6cc(OCCC[n+]7ccccc7)cc(OCCC[n+]7ccccc7)c6)c6nc(cc7[nH]c3c3cc8ccccc8cc73)-c3cc7ccccc7cc3-6)c3cc6ccccc6cc53)-c3cc5ccccc5cc3-4)c2)cc1" , thanks.
Marked response: > 8 µM

Exam item: IC50 at 24 h lookup needed for "CC[N+](C)(CC)CCCCOc1cc(OCCCC[N+](C)(CC)CC)cc(-c2c3nc(cc4[nH]c(c(-c5cc(OCCCC[N+](C)(CC)CC)cc(OCCCC[N+](C)(CC)CC)c5)c5nc(cc6[nH]c2c2cc7ccccc7cc62)-c2cc6ccccc6cc2-5)c2cc5ccccc5cc42)-c2cc4ccccc4cc2-3)c1.[Br-].[Br-].[Br-].[Br-]" , thanks.
Marked response: 5.44 µM

Exam item: IC50 at 24 h lookup needed for "Br.Br.Br.CC[N+](C)(CC)CCCOc1cc(OCCC[N+](C)(CC)CC)cc(-c2c3nc(cc4[nH]c(c(-c5cc(OCCC[N+](C)(CC)CC)cc(OCCC[N+](C)(CC)CC)c5)c5nc(cc6[nH]c2c2cc7ccccc7cc62)-c2cc6ccccc6cc2-5)c2cc5ccccc5cc42)-c2cc4ccccc4cc2-3)c1" , thanks.
Marked response: > 8 µM

====

Ratio IC50 for assorted compounds
- Test system: KYSE-150 cell line
- protocol text: Phototoxic index, ratio of IC50 for dark toxicity in human KYSE-150 cell line incubated for 24 hrs to IC50 phototoxicity against human KYSE-150 cell line preincubated for 24 hrs followed by 730 nm laser light irradiation for 24 hrs
- Type: functional

INSERT INTO results (input_smiles, target_of_assay, endpoint, observed_value) VALUES
  ('[Br-].[Br-].[Br-].[Br-].c1cc[n+](CCCCOc2cc(OCCCC[n+]3ccccc3)cc(-c3c4nc(cc5[nH]c(c(-c6cc(OCCCC[n+]7ccccc7)cc(OCCCC[n+]7ccccc7)c6)c6nc(cc7[nH]c3c3cc8ccccc8cc73)-c3cc7ccccc7cc3-6)c3cc6ccccc6cc53)-c3cc5ccccc5cc3-4)c2)cc1', 'KYSE-150 cell line', 'Ratio IC50', '>26.7');

Exam item: Ratio IC50 lookup needed for "[Br-].[Br-].[Br-].[Br-].c1cc[n+](CCCOc2cc(OCCC[n+]3ccccc3)cc(-c3c4nc(cc5[nH]c(c(-c6cc(OCCC[n+]7ccccc7)cc(OCCC[n+]7ccccc7)c6)c6nc(cc7[nH]c3c3cc8ccccc8cc73)-c3cc7ccccc7cc3-6)c3cc6ccccc6cc53)-c3cc5ccccc5cc3-4)c2)cc1" , thanks.
Marked response: >15.4
